target.under.test: IRAK4 (Homo sapiens, UniProt Q9NWZ3)
Construct: endogenous in cells; host or cells: Karpas299
Sequence (Q9NWZ3 1-460): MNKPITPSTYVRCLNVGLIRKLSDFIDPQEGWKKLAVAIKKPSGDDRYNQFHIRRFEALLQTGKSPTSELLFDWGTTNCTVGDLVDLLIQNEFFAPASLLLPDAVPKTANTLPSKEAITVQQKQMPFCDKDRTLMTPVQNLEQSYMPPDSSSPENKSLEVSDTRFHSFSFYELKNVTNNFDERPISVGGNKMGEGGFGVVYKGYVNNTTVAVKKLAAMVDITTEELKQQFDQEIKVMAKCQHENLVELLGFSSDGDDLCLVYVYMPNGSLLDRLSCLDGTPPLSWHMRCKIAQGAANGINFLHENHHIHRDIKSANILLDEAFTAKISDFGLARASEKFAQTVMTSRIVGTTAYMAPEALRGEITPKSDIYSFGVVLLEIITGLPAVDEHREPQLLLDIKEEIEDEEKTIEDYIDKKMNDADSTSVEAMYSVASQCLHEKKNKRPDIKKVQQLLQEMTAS
measurement.notes: IRAK4 Degradation Assay (Karpas299, HTRF/TR-FRET)
Format: cell-based
stated.conditions: Karpas-299 cells, 24 h treatment; maximum percentage of degradation; read-out: IRAK4 in Karpas-299 (24 h) Dmax (%)
measurement.name: Dmax (%)

| molecule | target.under.test | recorded.measurement |
| --- | --- | --- |
| CC(C)(O)c1cc2nn([C@H]3CC[C@H](N4CCN(CC5CN(c6cc(F)c([C@H]7CCC(=O)NC7=O)c(F)c6)C5)C[C@@H]4CO)CC3)cc2cc1NC(=O)c1ccc2cc(C#N)cnn12 [Example 400] | IRAK4 (Homo sapiens, UniProt Q9NWZ3) | 97 |
| O=C1CC[C@H](c2c(F)cc(N3CC(C(=O)N4CCN(C[C@H]5CC[C@H](n6cc(NC(=O)c7coc(-c8ccnc(NCC(F)(F)F)c8)n7)c(C(F)F)n6)CC5)CC4)C3)cc2F)C(=O)N1 [Example 4] | IRAK4 (Homo sapiens, UniProt Q9NWZ3) | 95 |
| [2H]C([2H])([2H])Oc1cc2nn([C@H]3CC[C@H](N4CCN(C(=O)[C@@H]5CCN(c6cc(F)c(N7CCC(=O)NC7=O)c(F)c6)C5)CC4)CC3)cc2cc1NC(=O)c1cccc(C(F)(F)F)n1 [Example 174] | IRAK4 (Homo sapiens, UniProt Q9NWZ3) | 97 |
| CC(C)(O)c1cc2nn(C3CCN([C@@H]4CCN(CCc5cc(F)c([C@H]6CCC(=O)NC6=O)c(F)c5)CC4(F)F)CC3)cc2cc1NC(=O)c1ccc2cc(C#N)cnn12 [Example 340] | IRAK4 (Homo sapiens, UniProt Q9NWZ3) | 98 |
| COC[C@H]1CN([C@H]2CC[C@H](n3cc4cc(NC(=O)c5ccc6cc(C#N)cnn56)c(C(C)(C)O)cc4n3)CC2)CCN1C(=O)[C@@H]1CCN(c2cc(F)c([C@H]3CCC(=O)NC3=O)c(F)c2)C1 [Example 313] | IRAK4 (Homo sapiens, UniProt Q9NWZ3) | 98 |

====

target.under.test: IRAK4 (Homo sapiens)
Construct: endogenous in cells; host or cells: Karpas299
measurement.notes: IRAK4 Degradation Assay (Karpas299, HTRF/TR-FRET)
Type: cell-based
stated.conditions: Degradation (Karpas-299), comparison table, Linker Type A; read-out: Compound (Linker Type A) Dmax (%)
Experimental: IRAK4 degradation was measured using a TR-FRET-based method (Degorce, François, et al. Current chemical genomics. 2009, 3: 22). […] IRAK4 level was quantitated using the HTRF kit as described by the manufacturer manual (Cisbio). FRET signals were measured using a PHERAstar FSX reader (BMG Labtech). […] The inhibition (degradation) percentage of the compound was calculated by the following equation: […]
measurement.name: Dmax (%)

| molecule | Dmax, % |
| --- | --- |
| COc1cc2nn([C@H]3CC[C@H](CN4CCN(C(=O)C5CN(c6ccc(N7CCC(=O)NC7=O)cc6)C5)CC4)CC3)cc2cc1NC(=O)c1cccc(C(F)(F)F)n1 | 92 |
| COc1cc2nn([C@H]3CC[C@H](CN4CCN(C(=O)[C@H]5CC[C@H](Oc6ccc(N7CCC(=O)NC7=O)cc6)CC5)CC4)CC3)cc2cc1NC(=O)c1cccc(C(F)(F)F)n1 | 11 |

1 = COc1cc2nn([C@H]3CC[C@H](CN4CCN(C(=O)[C@@H]5CCN(c6ccc(N7CCC(=O)NC7=O)cc6)C5)CC4)CC3)cc2cc1NC(=O)c1cccc(C(F)(F)F)n1
2 = COc1cc2nn(C3CCN(C(=O)[C@H]4CC[C@H](Oc5ccc(C6CCC(=O)NC6=O)cc5)CC4)CC3)cc2cc1NC(=O)c1cccc(C(F)(F)F)n1 (stereo partly drawn)
3 = O=C1CC[C@H](c2c(F)cc(CCN3CCN(C[C@H]4CC[C@H](n5cc(NC(=O)c6coc(-c7ccnc(NCC(F)(F)F)c7)n6)c(C(F)F)n5)CC4)CC3)cc2F)C(=O)N1
Query block: Hey, quick one: sort these by Dmax, low to high? Response field: labels, in requested order.
Result block: 2, 3, 1
